- Test System: 5-hydroxytryptamine receptor 1A (Homo sapiens)
- Test Parameters: HeLa
- Description: Effect (1 uM) on Forskolin-Stimulated cAMP formation, in HeLa cells transfected with the 5-HT 1A receptor
Measured Quantity: cAMP (pmol/well)
Number in pmol/well, nothing else.

Using the record for COc1ccccc1N1CCN(CCC(O)c2csc3ccccc23)CC1 (centres undefined) , report its cAMP.
18.1

Shift focus to the following entry.
GET /values?readout=cAMP&item= COc1ccccc1N1CCN(CC/C(=N\O)c2ccc(C)s2)CC1
9.8

----------
// reported Immobility time per item
- System: Mus musculus
- Experiment Description: Effect on immobility time in the forced swimming test (FST) in mice at 0 mg/kg dose
- Assay type: functional
The reply should be a number in s, with the unit left off.

Form field - read-out: Immobility time; system: Mus musculus; submitted item: Oc1ccccc1N1CCN(CCC(O)c2csc3ccccc23)CC1 (stereo not drawn)
178

# get_value(readout= Immobility time, system= Mus musculus) for COc1ccccc1N1CCN(CCC(=O)c2ccsc2)CC1
170.1

Give the reported Immobility time for COc1ccccc1N1CCN(CC/C(=N\O)c2csc3ccccc23)CC1 (system: Mus musculus).
188.1

I'm curious: which Immobility time was measured for COc1ccccc1N1CCN(CCC(O)c2cc(C)sc2C)CC1 (stereo not drawn) tested on Mus musculus?
124.3

Form entry - test system: Mus musculus; read-out: Immobility time; compound: COc1ccccc1N1CCN(CCC(Oc2cccc3ccccc23)c2ccsc2)CC1 (stereo not drawn)
157.1

Form entry - test system: Mus musculus; read-out: Immobility time; compound: COc1ccccc1N1CCN(CCC(=O)c2csc3ccccc23)CC1
169.4

What is its Immobility time for Mus musculus? Entry: COc1ccccc1N1CCN(CC/C(=N\O)c2ccc(C)s2)CC1
142.7

Notebook entry, Mus musculus assay: Immobility time of COc1ccccc1N1CCN(CCC(O)c2csc3ccccc23)CC1 (stereo not drawn) = ?
145

----------
Listed next: entries and their corresponding pKi.
- Test System: 5-hydroxytryptamine receptor 1A (Rattus norvegicus)
- Experiment Description: Binding affinity to 5-hydroxytryptamine 1A receptor (5-HT 1A receptor, serotonin receptor) from rat cortex using [3H]8-OH-DPAT as radioligand
- Test Parameters: read-out: Ki
Value format note: pKi is -log10 of concentration (mol/L); just state the number.

Recorded results for 3 compounds are shown here.
Quick one: pKi of COc1ccccc1N1CCN(CCC(=O)c2ccsc2)CC1 ?
7.80

Entry under review: COc1ccccc1N1CCN(CC/C(=N\O)c2ccc(C)s2)CC1 . Reported pKi?
6.89

Item under review: OC(CCN1CCN(c2ccc(Cl)cc2)CC1)c1csc2ccccc12 (stereo unspecified) . Reported pKi?
5.30

Further cases:
Look up pKi for this compound: COc1ccccc1N1CCN(CCC(Oc2ccc3c(c2)OCO3)c2ccccc2)CC1 (stereo unspecified)
7.70

Item under review: COc1ccccc1N1CCN(CC/C(=N\O)c2csc3ccccc23)CC1 . Reported pKi?
7.22

Field request: pKi | item: OC(CCN1CCN(c2ccccc2Cl)CC1)c1ccsc1 (stereo unspecified)
6.70

What value of pKi has been recorded for this entry: COc1ccccc1N1CCN(CCC(O)c2ccc([N+](=O)[O-])cc2)CC1 (stereo unspecified)
8.00

I am curious: what pKi value has been reported for COc1ccccc1N1CCN(CCC(=O)c2ccc3ccccc3c2)CC1 ?
6.60

----------
- Test System: 5-hydroxytryptamine receptor 2A (Rattus norvegicus)
- Sequence (P14842 whole entry): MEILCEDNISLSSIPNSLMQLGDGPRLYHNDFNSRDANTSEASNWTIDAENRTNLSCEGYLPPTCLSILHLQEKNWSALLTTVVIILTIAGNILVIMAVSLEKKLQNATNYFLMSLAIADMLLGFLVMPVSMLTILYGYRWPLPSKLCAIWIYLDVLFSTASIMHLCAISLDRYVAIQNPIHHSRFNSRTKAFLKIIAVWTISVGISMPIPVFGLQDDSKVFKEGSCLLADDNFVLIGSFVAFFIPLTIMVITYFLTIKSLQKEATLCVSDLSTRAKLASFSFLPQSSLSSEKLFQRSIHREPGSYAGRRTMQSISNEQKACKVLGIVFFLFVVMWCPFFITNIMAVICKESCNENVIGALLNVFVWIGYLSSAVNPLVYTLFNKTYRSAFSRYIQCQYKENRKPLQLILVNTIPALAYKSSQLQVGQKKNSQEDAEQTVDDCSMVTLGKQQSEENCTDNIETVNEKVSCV
- Experiment Description: Affinity at 5-hydroxytryptamine 2 receptor (For ketanserin = Ki(nM)= 0.7+/-0.09)
Measured Quantity: Ki (µM)
Please state the figure in µM; there is no need to write the unit.

For the compound COc1ccccc1N1CCN(CCC(=O)c2csc3ccccc23)CC1 , what Ki is on record?
5

----------
- System: Mus musculus
- Experiment Description: Time-dependent effect on 8-OH-DPAT-induced hypothermia (change in body temperature) after 30 min, in mice at 0.5 mg/kg dose
- Type: functional
Here the recorded Temperature change is given for each entry.

Examples from the recorded data:
Form field: reported Temperature change of COc1ccccc1N1CCN(CCC(=O)c2csc3ccccc23)CC1
<-0.86 °C

Name the reported Temperature change value associated with the compound COc1ccccc1N1CCN(CCC(=O)c2ccsc2)CC1
-2.04 °C

Need Temperature change of COc1ccccc1N1CCN(CC/C(=N\O)c2csc3ccccc23)CC1 , thanks.
-2.18 °C

Further cases:
What value of Temperature change has been reported for the following compound? COc1ccccc1N1CCN(CCC(O)c2csc3ccccc23)CC1 (centres undefined)
-1.38 °C

I'd like to know its Temperature change. The compound in question is COc1ccccc1N1CCN(CC/C(=N\O)c2ccc(C)s2)CC1
-2.05 °C

----------
- Test System: Sodium-dependent serotonin transporter (Rattus norvegicus, UniProt P31652)
- Sequence (P31652 whole entry): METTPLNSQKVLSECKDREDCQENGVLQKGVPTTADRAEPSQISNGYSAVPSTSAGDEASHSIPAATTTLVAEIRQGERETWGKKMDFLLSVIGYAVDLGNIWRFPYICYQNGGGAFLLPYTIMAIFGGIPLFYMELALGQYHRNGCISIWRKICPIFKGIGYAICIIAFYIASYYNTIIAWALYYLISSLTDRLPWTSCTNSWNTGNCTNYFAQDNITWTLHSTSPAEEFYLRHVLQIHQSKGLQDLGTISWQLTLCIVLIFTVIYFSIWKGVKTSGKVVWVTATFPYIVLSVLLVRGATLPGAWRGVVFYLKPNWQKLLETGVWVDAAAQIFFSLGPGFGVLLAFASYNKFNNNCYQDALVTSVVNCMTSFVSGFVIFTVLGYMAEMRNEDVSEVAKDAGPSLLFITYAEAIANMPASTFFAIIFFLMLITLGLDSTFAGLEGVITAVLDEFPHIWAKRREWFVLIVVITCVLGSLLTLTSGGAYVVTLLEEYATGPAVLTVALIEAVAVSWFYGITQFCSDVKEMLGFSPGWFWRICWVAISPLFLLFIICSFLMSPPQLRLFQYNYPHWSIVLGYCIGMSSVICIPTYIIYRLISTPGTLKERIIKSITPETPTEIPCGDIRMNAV
- Experiment Description: Binding affinity towards Serotonin transporter from rat cortex measured using [3H]paroxetine
- Test Parameters: read-out: Ki
# label = 1 (yes) if Ki < 0.3 µM else 0 (no)

Example cases with answers are listed next.
Find out if reported Ki for COc1ccc(C(O)CCN2CCN(c3ccccc3OC)CC2)cc1 (stereo not given) is less than 0.3 µM
0 (no)

Hello, is Ki of the following molecule strictly smaller than 0.3 µM? O=C(CCN1CCN(c2ccc(Cl)cc2)CC1)c1cccs1
1 (yes)

# check: Ki < 0.3 µM for OC(CCN1CCN(c2ccccc2Cl)CC1)c1ccsc1 (stereo not given)
0 (no)

is_below(Ki, 0.3 µM) for COc1cc(Cl)ccc1N1CCN(CCC(=O)c2cc(C)sc2C)CC1 ?
1 (yes)

Please let me know if FC(F)(F)c1ccc(OC(CCN2CCN(c3ccc(Cl)cc3)CC2)c2ccccc2)cc1 (stereo not given) shows Ki below 0.3 µM.
0 (no)

Shifting focus to the molecule that follows.
Below 0.3 µM on Ki? Entry O=C(CCN1CCN(c2ccc(Cl)cc2)CC1)c1ccc2ccccc2c1
1 (yes)

----------
- Test System: 5-hydroxytryptamine receptor 1A (Rattus norvegicus)
- Sequence (P19327 whole entry): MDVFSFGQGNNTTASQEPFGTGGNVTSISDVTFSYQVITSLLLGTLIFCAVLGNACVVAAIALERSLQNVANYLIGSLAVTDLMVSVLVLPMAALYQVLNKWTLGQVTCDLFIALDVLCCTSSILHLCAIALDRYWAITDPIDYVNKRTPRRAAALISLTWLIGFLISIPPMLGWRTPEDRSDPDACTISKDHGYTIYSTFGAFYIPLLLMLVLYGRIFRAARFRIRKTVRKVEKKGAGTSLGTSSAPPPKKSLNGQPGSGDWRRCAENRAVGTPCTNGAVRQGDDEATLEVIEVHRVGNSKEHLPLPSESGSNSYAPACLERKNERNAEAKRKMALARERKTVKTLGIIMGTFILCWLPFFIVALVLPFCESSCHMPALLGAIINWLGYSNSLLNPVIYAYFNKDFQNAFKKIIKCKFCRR
- Experiment Description: Binding affinity to 5-hydroxytryptamine 1A receptor (5-HT 1A receptor, serotonin receptor) from rat cortex using [3H]8-OH-DPAT as radioligand
# Ki per entry

Use the examples below as a reference point.
Fill in the blank: the reported Ki of O=C(CCN1CCN(c2ccccc2O)CC1)c1csc2ccccc12 is ____.
0.11 µM

Dear colleague, I am looking for the recorded Ki of the following compound: COc1ccccc1N1CCN(CCC(O)c2cccs2)CC1 (stereo unspecified)
0.019 µM

So what does the record say about Ki for COc1ccccc1N1CCN(CCC(=O)c2ccc(-c3ccccc3)cc2)CC1 ?
3.65 µM

What does the data say about its Ki? Entry: Clc1ccc(N2CCN(CCC(Oc3ccc4c(c3)OCO4)c3ccccc3)CC2)cc1 (stereo unspecified)
0.55 µM

For the compound shown here, COc1ccccc1N1CCN(CCC(Oc2ccc(C(F)(F)F)cc2)c2ccsc2)CC1 (stereo unspecified) , give the reported Ki.
0.255 µM

Looking for the measured Ki of COc1ccccc1N1CCN(CCC(Oc2cccc3ccccc23)c2cccs2)CC1 (stereo unspecified) , can you help?
0.22 µM

Name the recorded Ki for COc1ccc(OC(CCN2CCN(c3ccccc3OC)CC2)c2ccccc2)cc1 (stereo unspecified) .
0.09 µM

Param item = COc1ccccc1N1CCN(CCC(=O)c2ccc([N+](=O)[O-])s2)CC1 ; retrieve measured Ki.
0.34 µM

What measured Ki goes with COc1ccccc1N1CCN(CCC(Oc2ccc(C(F)(F)F)cc2)c2ccccc2)CC1 (stereo unspecified) ?
0.45 µM

Entry under review: COc1ccccc1N1CCN(CCC(O)c2ccccc2)CC1 (stereo unspecified) . Reported Ki?
0.0475 µM

Let's switch to this compound now.
Item COc1ccccc1N1CCN(CC/C(=N\O)c2ccsc2)CC1 has what recorded Ki?
0.0065 µM

----------
- Test System: D(2) dopamine receptor (Rattus norvegicus)
- Sequence (P61169 whole entry): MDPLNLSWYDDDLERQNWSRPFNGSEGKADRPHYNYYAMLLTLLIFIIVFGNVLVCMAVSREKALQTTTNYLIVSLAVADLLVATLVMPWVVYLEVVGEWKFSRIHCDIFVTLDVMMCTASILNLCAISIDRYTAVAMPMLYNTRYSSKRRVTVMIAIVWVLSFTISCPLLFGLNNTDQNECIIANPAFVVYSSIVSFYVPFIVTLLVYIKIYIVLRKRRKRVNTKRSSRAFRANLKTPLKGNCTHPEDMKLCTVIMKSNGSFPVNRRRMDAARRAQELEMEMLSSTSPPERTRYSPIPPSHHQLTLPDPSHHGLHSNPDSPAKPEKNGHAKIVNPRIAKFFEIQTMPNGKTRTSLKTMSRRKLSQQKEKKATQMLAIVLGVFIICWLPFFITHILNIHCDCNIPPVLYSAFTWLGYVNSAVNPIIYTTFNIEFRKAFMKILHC
- Experiment Description: Affinity at dopamine D2 receptor from rat striatum using [3H]spiroperidol as radioligand (For haloperidol Ki(nM)= 1.5+/-1.2)
- Type: tissue-based
Measured Quantity: Ki (µM)
Respond with the bare value in µM.

What value of measured Ki is listed for COc1ccccc1N1CCN(CCC(O)c2csc3ccccc23)CC1 (configuration not stated) ?
0.15

Further cases:
Recorded Ki of COc1ccccc1N1CCN(CCC(Oc2cccc3ccccc23)c2ccsc2)CC1 (configuration not stated) , please.
2.5
